Listed here: items and their measured Total Cell Count.
# System: U2OS
# experiment.summary: Multiplex assay against U2OS
# Type: toxicity, cell-based
# condition.summary: human, 48 h, 1 µM, compound concentration 1 uM, replicate 2
measured.metric: Total Cell Count

[
  {
    "compound": "Cc1ccc(-c2ccc(F)cc2COc2ccc(CCC(=O)O)cc2)cc1",
    "measured.metric": "Total Cell Count",
    "recorded.number": 242
  },
  {
    "compound": "Cc1ccc(F)cc1C(=O)Nc1ccc(C(=O)N2Cc3cccn3Cc3ccccc32)c(Cl)c1 [LIXIVAPTAN]",
    "measured.metric": "Total Cell Count",
    "recorded.number": 206
  },
  {
    "compound": "C[C@H]1[C@H]2CC[C@H]3[C@@H]4CC=C5C[C@@H](N(C)C)CC[C@]5(C)[C@H]4CC[C@]23CN1C [CONESSINE]",
    "measured.metric": "Total Cell Count",
    "recorded.number": 227
  },
  {
    "compound": "CC(=O)NCCc1c(Cc2ccccc2)[nH]c2ccccc12 [LUZINDOLE]",
    "measured.metric": "Total Cell Count",
    "recorded.number": 217
  },
  {
    "compound": "O=C(O)Cc1ccccc1Nc1c(Cl)cccc1Cl [DICLOFENAC]",
    "measured.metric": "Total Cell Count",
    "recorded.number": 216
  },
  {
    "compound": "CN(C)c1ccnc2sc3c(=O)n(N4CCCCCC4)cnc3c12",
    "measured.metric": "Total Cell Count",
    "recorded.number": 239
  },
  {
    "compound": "O=C(NCC(=O)N1CC[C@H](N[C@H]2CC[C@@](O)(c3ccc(-c4ncccn4)cn3)CC2)C1)c1cccc(C(F)(F)F)c1 [PF-4136309]",
    "measured.metric": "Total Cell Count",
    "recorded.number": 224
  },
  {
    "compound": "Cc1ccccc1C(=O)Nc1ccc(C(=O)N2CCCC(N(C)C)c3ccccc32)cc1.Cl (centres undefined)",
    "measured.metric": "Total Cell Count",
    "recorded.number": 248
  },
  {
    "compound": "CCOc1c2c(c(OCC)c3ncccc13)CN(c1ccc(CS(=O)(=O)NC(=O)Cc3ccccc3OC)cc1C)C2=O",
    "measured.metric": "Total Cell Count",
    "recorded.number": 167
  },
  {
    "compound": "O=C(NCCO)c1cccc(-c2cc(Nc3ccc(OC(F)(F)F)cc3)ncn2)c1",
    "measured.metric": "Total Cell Count",
    "recorded.number": 206
  },
  {
    "compound": "CC(C)(C)c1ccc(S(=O)(=O)Nc2ccc(Cl)cc2C(=O)c2cc[n+]([O-])cc2)cc1 [VERCIRNON]",
    "measured.metric": "Total Cell Count",
    "recorded.number": 296
  },
  {
    "compound": "CC[C@H]1OC(=O)[C@H](C)[C@@H](O[C@H]2C[C@@](C)(OC)[C@@H](O)[C@H](C)O2)[C@H](C)[C@@H](O[C@@H]2O[C@H](C)C[C@H](N(C)C)[C@H]2O)[C@@]2(C)CC(C)=C(O2)[C@H](C)[C@@H](O)[C@]1(C)O",
    "measured.metric": "Total Cell Count",
    "recorded.number": 147
  },
  {
    "compound": "COc1cc(NC(=O)CCN2CCC(OC(=O)Nc3ccccc3-c3ccccc3)CC2)c(Cl)cc1CNC[C@H](O)c1ccc(O)c2[nH]c(=O)ccc12 [BATEFENTEROL]",
    "measured.metric": "Total Cell Count",
    "recorded.number": 123
  },
  {
    "compound": "Cl.Clc1ccc2nsnc2c1NC1=NCCN1 [TIZANIDINE HYDROCHLORIDE]",
    "measured.metric": "Total Cell Count",
    "recorded.number": 260
  },
  {
    "compound": "CCNC1(C(N)=O)CCN(c2ncnc3c2nc(-c2ccccc2Cl)n3-c2ccc(Cl)cc2)CC1 [OTENABANT]",
    "measured.metric": "Total Cell Count",
    "recorded.number": 137
  },
  {
    "compound": "CNC[C@H](O)c1ccc(O)c(O)c1 [EPINEPHRINE]",
    "measured.metric": "Total Cell Count",
    "recorded.number": 150
  },
  {
    "compound": "CCCN1CCC[C@@H]2Cc3n[nH]cc3C[C@H]21.Cl [QUINPIROLE HYDROCHLORIDE]",
    "measured.metric": "Total Cell Count",
    "recorded.number": 180
  },
  {
    "compound": "O=S(=O)(c1ccccc1)c1cnc2c(N3CCNCC3)cccc2c1 [INTEPIRDINE]",
    "measured.metric": "Total Cell Count",
    "recorded.number": 148
  },
  {
    "compound": "O=C(O)c1cc2ccccc2c(Cc2c(O)c(C(=O)O)cc3ccccc23)c1O [PAMOIC ACID]",
    "measured.metric": "Total Cell Count",
    "recorded.number": 177
  },
  {
    "compound": "CN1CCN2c3ncccc3Cc3ccccc3C2C1 (centres undefined) [MIRTAZAPINE]",
    "measured.metric": "Total Cell Count",
    "recorded.number": 132
  },
  {
    "compound": "CN(C)CCCc1cc(C(=O)Nc2ccc(-c3ccncc3)cc2)ccc1O.Cl.Cl",
    "measured.metric": "Total Cell Count",
    "recorded.number": 259
  },
  {
    "compound": "c1cc(OCCCN2CCCCC2)ccc1CN1CCCCC1 [JNJ-5207852]",
    "measured.metric": "Total Cell Count",
    "recorded.number": 152
  },
  {
    "compound": "O=C1COc2nccc(-c3ccccc3F)c2CN1Cc1cc(C(F)(F)F)cc(C(F)(F)F)c1",
    "measured.metric": "Total Cell Count",
    "recorded.number": 166
  },
  {
    "compound": "Cc1nc2ccc(Oc3ccc(F)cc3)cc2c(=O)n1C[C@H]1CCCN(C(C)C)C1.Cl",
    "measured.metric": "Total Cell Count",
    "recorded.number": 213
  },
  {
    "compound": "COc1c(C)cc(NC(=O)c2nn(Cc3ccc(F)cc3)c3c2CN(C(=O)c2ccc[nH]2)C[C@]3(C)C(N)=O)cc1C",
    "measured.metric": "Total Cell Count",
    "recorded.number": 152
  },
  {
    "compound": "Oc1c(CN2CCN(c3ccccn3)CC2)cc(Cl)c2cccnc12",
    "measured.metric": "Total Cell Count",
    "recorded.number": 111
  },
  {
    "compound": "C[C@H](NC(=O)c1c(C(F)F)nn(C)c1Oc1cccc(C(F)(F)F)c1)c1ccc(C(=O)O)cc1 [PALUPIPRANT]",
    "measured.metric": "Total Cell Count",
    "recorded.number": 207
  },
  {
    "compound": "COc1ccc2c(c1)C(C(=O)N(Cc1ccc(N(C)C)cc1)c1ccc(C(C)C)cc1)CCC2.Cl (centres undefined)",
    "measured.metric": "Total Cell Count",
    "recorded.number": 203
  },
  {
    "compound": "CSCC[C@H](NC=O)C(=O)N[C@@H](CC(C)C)C(=O)N[C@@H](Cc1ccccc1)C(=O)O",
    "measured.metric": "Total Cell Count",
    "recorded.number": 202
  }
]

---

# System: HEK-293T
# experiment.summary: Multiplex assay against HEK293T
# Assay type: toxicity, cell-based
# condition.summary: human, 12 h, 1 µM, compound concentration 1 uM, replicate 1
# 1.0 = Population Apoptotic (%) below 40% (exclusive); 0.0 = Population Apoptotic (%) at/above 40%

[
  {
    "molecule": "COc1c(C)cc(NC(=O)c2nn(Cc3ccc(F)cc3)c3c2CN(C(=O)c2ccc[nH]2)C[C@]3(C)C(N)=O)cc1C",
    "target.system": "HEK-293T",
    "class.name": 0.0
  },
  {
    "molecule": "Cc1ccccc1C(=O)Nc1ccc(C(=O)N2CCCC(N(C)C)c3ccccc32)cc1.Cl (stereo not drawn)",
    "target.system": "HEK-293T",
    "class.name": 1.0
  },
  {
    "molecule": "C[C@H]1[C@H]2CC[C@H]3[C@@H]4CC=C5C[C@@H](N(C)C)CC[C@]5(C)[C@H]4CC[C@]23CN1C",
    "target.system": "HEK-293T",
    "class.name": 1.0
  },
  {
    "molecule": "COc1ccc2c(c1)C(C(=O)N(Cc1ccc(N(C)C)cc1)c1ccc(C(C)C)cc1)CCC2.Cl (stereo not drawn)",
    "target.system": "HEK-293T",
    "class.name": 1.0
  },
  {
    "molecule": "COc1cc(NC(=O)CCN2CCC(OC(=O)Nc3ccccc3-c3ccccc3)CC2)c(Cl)cc1CNC[C@H](O)c1ccc(O)c2[nH]c(=O)ccc12",
    "target.system": "HEK-293T",
    "class.name": 0.0
  },
  {
    "molecule": "Cc1ccc(F)cc1C(=O)Nc1ccc(C(=O)N2Cc3cccn3Cc3ccccc32)c(Cl)c1",
    "target.system": "HEK-293T",
    "class.name": 1.0
  },
  {
    "molecule": "CSc1ccccc1N1CCN(CCCCCC(=O)NC2CCCc3ccccc32)CC1.Cl (stereo not drawn)",
    "target.system": "HEK-293T",
    "class.name": 0.0
  }
]
